Test system: A549 NSCLC
Experiment: NCI tumour cell line growth inhibition, 48 h
MEASURE: GI50

CC(=O)c1ccc2c(c1)N(CCCN(C)C)c1ccccc1S2 :: 17.7 µM

Per the reported A549 NSCLC data, `CCN(CC)CCCNc1[nH]ncc2c(C)c3nc4ccccc4c3cc12` has GI50 of 0.398 µM

Per the reported A549 NSCLC data, COC(=O)[C@@H](OC)[C@@H]1Cc2cc3cc(OC4CC(OC5CC(O)C(O)C(C)O5)C(O)C(C)O4)c(C)c(O)c3c(O)c2C(=O)[C@H]1OC1CC(OC2CC(OC3CC(C)(O)C(O)C(C)O3)C(O)C(C)O2)C(O)C(C)O1 (stereo partly specified) has GI50 of 0.0484 µM

Per the reported A549 NSCLC data, `FC(F)(F)c1[nH]ncc1-c1nc2ccc3[nH]ncc3c2c2c1CCCC2` has GI50 of 1.77 µM

Per the reported A549 NSCLC data, COc1cc(NC(C)CCCN)c2ncccc2c1Sc1ccc(Cl)cc1 (stereo unspecified) has GI50 of 1.65 µM

Per the reported A549 NSCLC data, `O=S(=O)(NCCO)c1cc[c]([Sb](=[O])([OH])[OH])cc1` has GI50 of > 100 µM

Per the reported A549 NSCLC data, `COc1ccc2[nH]c(O)c(/C=c3/ccc4c(c3)N=C(c3ccc(F)cc3)N=4)c2c1` has GI50 of 3.11 µM

Per the reported A549 NSCLC data, `CN(C)CCNc1nc2ccccc2c2occc12` has GI50 of 44.7 µM

Per the reported A549 NSCLC data, CCN1C(=O)N(CC)C2C1NN=c1s/c(=C\c3cccc([N+](=O)[O-])c3)c(=O)n12 (stereo unspecified) has GI50 of 0.181 µM

Per the reported A549 NSCLC data, `COc1ccc2nccc(/C=C/c3ccnc4ccc(OC)cc34)c2c1` has GI50 of > 100 µM
